The values you see were collected from patent US5869500A.

test system: Aβ production in HEK cells over-expressing mutated β-APP (SFAD); test: Aβ production inhibition, sandwich-ELISA in HEK cells, over-expressed mutated β-APP (SE-SFAD); format: cell-based, human; conditions: HEK cells, based on the respective plateau of maximum inhibition
Here the recorded IC50 is given for each entry.

compound: COC(=O)c1cc(-c2ccccc2OC)c(=O)n2ccc3ccsc3c12 [Compound 114]
IC50: 6.3 µM
//
compound: COC(=O)c1cc(-c2ccccc2OC)c(=O)n2ccc3ccsc3c12 [Compound 129]
IC50: 2.8 µM
